# System: S. cerevisiae BY4741 (wild-type), vegetative growth in YPD
# ASSAY_DETAILS: growth sensitivity score (doubling time z-score vs DMSO controls); higher = slower growth, strongly negative scores also mark growth inhibition (complete suppression), active = hit call of the paper
Param threshold (1) applies to growth sensitivity score; output T when value >= threshold, F when value < threshold.

- Cc1c(OCC(F)(F)F)ccnc1C[S+]([O-])c1nc2ccccc2[nH]1 (stereo unspecified) [Lansoprazole] (stock concentration (mM, diluted 1:100): 10.1): T

Query: Entry CC1=C(C(=O)O)N2C(=O)[C@@H](NC(=O)[C@H](N)c3ccccc3)[C@H]2SC1 [Cephalexin monohydrate] (stock concentration (mM, diluted 1:100): 10) : is its growth sensitivity score no less than 1?
Result: F

Query: Entry N#Cc1ccc(C(c2ccc(C#N)cc2)n2cncn2)cc1 [Letrozol] (stock concentration (mM, diluted 1:100): 10) : is its growth sensitivity score no less than 1?
Result: F

----------
Kindly supply the reported HIS4 meiotic recombination assay sensitivity score values for the records listed here.
# Tested on: S. cerevisiae NKY1551 his4x/his4B, sporulating;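 also: active if sensitivity score above 5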
# ASSAY_DETAILS: HIS4 meiotic recombination assay sensitivity score (z-score vs DMSO controls); higher = stronger inhibition of sporulation/recombination, active = hit call of the paper
Give bare numbers.

For orientation, consider the following solved cases.
* CC(=O)N1CCN(c2ccc(OCC3COC(Cn4ccnc4)(c4ccc(Cl)cc4Cl)O3)cc2)CC1 (centres undefined) [Ketoconazole] (stock concentration (mM, diluted 1:100): 10) | -1.74
* CCN(CC)C(=S)SSC(=S)N(CC)CC [Tetraethylthiuram disulfide] (stock concentration (mM, diluted 1:100): 10) | -2.95
* CN(C)[C@@H]1C(O)=C(C(=O)NCN2CCCC2)C(=O)[C@@]2(O)C(O)=C3C(=O)c4c(O)cccc4[C@@](C)(O)[C@H]3C[C@@H]12 [Rolitetracycline] (stock concentration (mM, diluted 1:100): 10) | 3.05
* CC(=O)SCC(Cc1ccccc1)C(=O)NCC(=O)OCc1ccccc1 (centres undefined) [Acetorphan] (stock concentration (mM, diluted 1:100): 10) | 1.65
* COc1ccc(-c2oc3c(CC=C(C)C)c(O[C@@H]4O[C@H](CO)[C@@H](O)[C@H](O)[C@H]4O)cc(O)c3c(=O)c2O[C@@H]2O[C@@H](C)[C@H](O)[C@@H](O)[C@H]2O)cc1 [Icariin] (stock concentration (mM, diluted 1:100): 10) | 0.32
* Cc1nc(=O)c2cc(CN(C)c3ccc(C(=O)N[C@@H](CCC(=O)O)C(=O)O)s3)ccc2[nH]1 [Raltitrexed] (stock concentration (mM, diluted 1:100): 10) | -0.01

Count: 2. Required value per item: HIS4 meiotic recombination assay sensitivity score.
1. C[C@]12C=CC(=O)C=C1CC[C@@H]1[C@@H]2[C@@H](O)C[C@@]2(C)[C@H]1CC[C@]2(O)C(=O)COC(=O)CCC(=O)O (stock concentration (mM, diluted 1:100): 10)
2. Nc1ccn([C@H]2CC[C@@H](CO)O2)c(=O)n1 [Zalcitabine] (stock concentration (mM, diluted 1:100): 10)

Result:
-0.86
-0.41

Query: Data request, read-out HIS4 meiotic recombination assay sensitivity score, for CNS(=O)(=O)Cc1ccc2[nH]cc(CCN(C)C)c2c1 [Sumatriptan succinate] (stock concentration (mM, diluted 1:100): 7.2)
Result: -0.69
